The origin of these recorded values is patent US7101878B1.

- tested_target: human GnRH receptor (Homo sapiens, UniProt P30968)
- Construct: expressed in transfected cells; host or cells: HEK 293 (hGnRH-R/293, from Dr. Stuart Sealfon)
- Sequence (P30968 1-328): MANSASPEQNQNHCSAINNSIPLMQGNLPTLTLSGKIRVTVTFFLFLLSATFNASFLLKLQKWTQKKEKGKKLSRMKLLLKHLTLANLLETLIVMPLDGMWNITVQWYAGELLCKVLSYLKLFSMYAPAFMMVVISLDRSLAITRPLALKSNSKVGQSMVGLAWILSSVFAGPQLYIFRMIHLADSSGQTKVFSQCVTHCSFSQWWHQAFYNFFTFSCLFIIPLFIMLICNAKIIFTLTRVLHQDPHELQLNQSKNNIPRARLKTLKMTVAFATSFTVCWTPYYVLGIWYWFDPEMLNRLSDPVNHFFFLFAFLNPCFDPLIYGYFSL
- assay_text: Radioligand binding, 125I-GnRH-A displacement, membranes of HEK 293 cells with human GnRH receptor
- conditions: read-out: hGnRH IC50
Here the recorded pIC50 is given for each entry.
Scale: negative log10 of molar concentration, which is what pIC50 denotes.

Need pIC50, item COC(CNC(=O)c1ccc(Cc2cc3c(cc2C)C(C)(C)CCC3(C)C)o1)OC [Compound 131]
6.22

Need pIC50, item CCN(CC)S(=O)(=O)c1ccc(OC)c(NC(=O)c2ccc(Cc3cc4c(cc3C)C(C)(C)CCC4(C)C)o2)c1
6.00

Need pIC50, item Cc1cc2c(cc1Cc1ccc(C(=O)NCCOc3ccccc3)o1)C(C)(C)CCC2(C)C
6.64

New cases:
Need pIC50, item Cc1cc2c(cc1Cc1ccc(C(=O)NCC3CCN(C(=O)OC(C)(C)C)CC3)o1)C(C)(C)CCC2(C)C
6.57

Need pIC50, item COc1cc(OC)c(NC(=O)c2ccc(Cc3cc4c(cc3C)C(C)(C)CCC4(C)C)o2)c(OC)c1C#N
8.13

Need pIC50, item Cc1cc2c(cc1Cc1ccc(C(=O)NCc3ccccc3Cl)o1)C(C)(C)CCC2(C)C
6.82
